assay: chemical genetic growth profiling, strain panel (AID 1159580);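 note: tested at 20 µM; growth read once vehicle control cultures reached saturation at 30 °C; lower values mean less growth of the strain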; settings: S. cerevisiae deletion strains, growth OD, locus YNL153C, strain GIM3
The whole screen tested about 5,500 compounds, of which about 2,000 (36%) were called active. About 18% were inconclusive and are not listed. Cut-off read from the data, not from the text of the source: active = normalized growth mostly below about 0.91 (no sharp cut-off); inconclusive = no clear call, values can overlap the other calls; inactive = mostly above about 0.92. The list shows a part of the results.
The reply should be one of these categories: active, inactive

>>> group("O=[N+]([O-])c1ccc(S(=O)(=O)N2CCCCC2)cc1")
"inactive"
>>> group("N[C@H]1CONC1=O")
"inactive"
>>> group("CCN1CCCC(OC(=O)C(c2ccccc2)c2ccccc2)C1 (centres undefined)")
"inactive"
>>> group("COc1cc(OC)c2c(c1)O[C@H](c1cc(OC)c(OC)c(OC)c1)[C@H](OC(=O)c1cc(OC)c(OC)c(OC)c1)C2")
"inactive"
>>> group("COc1ccc(/C=C2\\CC/C(=C\\c3ccc(OC)c(OC)c3)C2=O)cc1OC")
"inactive"

Please find the next compound below.
### Prompt What did the test return for `C[n+]1c2cc(N)ccc2cc2ccc(N)cc21` ?
### Response active
